- Experimental system: PI3K (Homo sapiens)
- Procedure text: Fluorescence polarization assay for PI3K
- Format: biochemical
- Experimental conditions: PI3Kα; read-out: PI3Kα IC50
Measured parameter: IC50 (nM)

Solved entries:
C=CC(=O)N1CCC(n2ncc3c(N4CCOCC4)nc(-c4ccc5[nH]ccc5c4)nc32)CC1 [Compound 194] = 1060
O=C(Nc1ccc(-c2nc(N3CCOCC3)c3cnn(C4CCN(C(=O)c5cccnc5)CC4)c3n2)cc1)Nc1ccsc1 [Example 414] = 18
CNC(=O)Nc1ccc(-c2nc(N3CCOCC3)c3cnn(C4CCN(Cc5ccc(F)nc5)CC4)c3n2)cc1 [Compound 632] = 108

(a) COC(=O)Nc1ccc(-c2nc(N3CCOCC3)c3cnn(C4CCN(C(=O)c5ccccc5)CC4)c3n2)cc1 [Compound 686]
(b) CNC(=O)Nc1ccc(-c2nc(N3CCOCC3)c3cnn(C4CCN(C(=O)c5ccccc5)CC4)c3n2)cc1 [Example 336]
Request: // compare measured IC50, left a , right b , return larger When you have decided, please share the label of that item.
Result: a
(a: 1010 nM, b: 70 nM)

(I) O=C1CCCN1CCn1ncc2c(N3CCOCC3)nc(-c3cccc(O)c3)nc21 [Compound 164]
(II) CNC(=O)Nc1ccc(-c2nc(N3CCOCC3)c3cnn(C4CCN(C(=O)CC(=O)OC)CC4)c3n2)cc1 [Compound 757]
Request: Identify the entry with the smaller IC50: I or II . When you have decided, please share the label of that item.
Result: II

(I) NC(=O)Nc1ccc(-c2nc(N3CCOCC3)c3cnn(C4CCN(C(=O)c5cccnc5)CC4)c3n2)cc1 [Example 301]
(II) CNC(=O)Nc1ccc(-c2nc(N3C[C@@H](C)O[C@@H](C)C3)c3cnn(C4CCN(Cc5cccnc5)CC4)c3n2)cc1 [Compound 941]
Request: Identify the entry with the smaller IC50: I or II . When you have decided, please share the label of that item.
Result: I
(I: 179 nM, II: 3880 nM)

====

- Experimental system: UniProtKB P42336
- Procedure text: Fluorescence polarization assay for PI3K
- Format: biochemical
- Experimental conditions: PI3Kα; read-out: PI3Kα IC50
Measured parameter: IC50 (nM)

Solved entries:
O=C(Nc1ccccc1)Nc1cc(F)c(-c2nc(N3CCOCC3)c3cnn(C4CCN(C(=O)c5cccnc5)CC4)c3n2)cc1F [Example 469] = 173
CCNC(=O)Nc1ccc(-c2nc(N3CCOCC3)c3cnn(C4CCN(Cc5cccnc5)CC4)c3n2)cc1F = 424
CNC(=O)Nc1ccc(-c2nc(N3CCOCC3)c3cnn(C4CCN(C(=O)c5cccc(F)c5)CC4)c3n2)cc1 [Example 357] = 89
NC(=O)CN1CCC(n2ncc3c(N4CCOCC4)nc(-c4ccc5[nH]ccc5c4)nc32)CC1 [Compound 495] = 2660
CCNC(=O)Nc1cc(F)c(-c2nc(N3CCOCC3)c3cnn(C4CCN(C(=O)c5cccnc5)CC4)c3n2)cc1F [Compound 710] = 3110

(I) CN(C)CC=CC(=O)N1CCC(n2ncc3c(N4CCOCC4)nc(-c4ccc5[nH]ccc5c4)nc32)CC1 [Compound 957]
(II) O=C(O)Cc1ccc(-c2nc(N3CCOCC3)c3cnn(C4CCN(Cc5ccccc5)CC4)c3n2)cc1
(III) CC(c1ccccc1)N1CCC(n2ncc3c(N4CCOCC4)nc(-c4ccc5[nH]ccc5c4)nc32)CC1 (stereo not drawn) [Compound 490]
Request: Highest IC50 first, then in falling order down to the smallest. Labels, ranked as asked.
Result: III, II, I

(a) O=C(NCCO)Nc1ccc(-c2nc(N3CCOCC3)c3cnn(C4CCN(CCCCO)CC4)c3n2)cc1
(b) c1cc2cc(-c3nc(N4CCOCC4)c4cnn(C5CCCCC5)c4n3)ccc2[nH]1
(c) COC(=O)N1CCC(n2ncc3c(N4CCOCC4)nc(-c4ccc(O)cc4)nc32)CC1
(d) CC(C)(C)OC(=O)N1CCC(n2ncc3c(N4CCOCC4)nc(-c4ccc(NC(=O)Nc5cccnc5)cc4)nc32)CC1
Request: Hey, quick one: sort these by IC50, low to high? Labels, ranked as asked.
Result: d, a, b, c

====

- Tested on: breast line MDA468
- Procedure text: In vitro cell culture growth assay (MTS), MDA468
- Type: cell-based, human
- Experimental conditions: Homo sapiens, 72 h, MDA468 cells, three days after drug treatment
Measured parameter: IC50 (µM)
A number alone suffices; assume µM.

Solved entries:
CNC(=O)Nc1ccc(-c2nc(N3CCOCC3)c3cn[nH]c3n2)cc1Cl = 6
CNC(=O)Nc1ccc(-c2nc(N3CCOCC3)c3cnn(C4CCN(Cc5ccccc5Cl)CC4)c3n2)cc1 = 0.2
CC(C)OC(=O)N1CCC(n2ncc3c(N4CCOCC4)nc(-c4ccc(NC(=O)NCCF)cc4)nc32)CC1 = 0.25

Request: Endpoint output: IC50 of `CNC(=O)Nc1ccc(-c2nc(N3CCOCC3)c3cnn(C4CCN(CC#N)CC4)c3n2)cc1` . Value?
Result: 1.2

Request: Endpoint output: IC50 of `C[C@@H]1COCCN1c1nc(-c2cccc(O)c2)nc2c1cnn2-c1ccccc1` . Value?
Result: 10.2

Request: Endpoint output: IC50 of `O=C(c1ccc(Br)nc1)N1CCC(n2ncc3c(N4CCOCC4)nc(-c4ccc5[nH]ccc5c4)nc32)CC1` . Value?
Result: 3

Request: Endpoint output: IC50 of `N#CNC(=O)Nc1ccc(-c2nc(N3CCOCC3)c3cnn(C4CCN(Cc5cccnc5)CC4)c3n2)cc1` . Value?
Result: 2.5

====

Recorded measurements of IC50, one per entry
- Test system: breast line MDA468
- Procedure text: In vitro cell culture growth assay (MTS), MDA468
- Format: cell-based, human
- Experimental conditions: Homo sapiens, 72 h, MDA468 cells, three days after drug treatment
A number alone suffices; assume µM.

OCCN1CCC(n2ncc3c(N4CCOCC4)nc(-c4ccc5[nH]ccc5c4)nc32)CC1 [Compound 496] = 3
O=C(CCl)N1CCC(n2ncc3c(N4CCOCC4)nc(-c4ccc5[nH]ccc5c4)nc32)CC1 = 1.2
Oc1cccc(-c2nc(N3CCOCC3)c3cnn(C4CCNCC4)c3n2)c1 = 2.2
CNC(=O)Nc1ccc(-c2nc(N3CCOCC3)c3cnn(C4CCN(C(=O)NC)CC4)c3n2)cc1 = 1.8
O=CNc1ccc(-c2nc(N3CCOCC3)c3cnn(-c4ccccc4)c3n2)cc1 = 20
C=CC(=O)Nc1ccc(-c2nc(N3CCOCC3)c3cn[nH]c3n2)cc1 [Compound 280] = 7

Request: Endpoint output: IC50 of CCNC(=O)Nc1ccc(-c2nc(N3CCOCC3)c3cnn(C4CCN(Cc5ccccc5)CC4)c3n2)cc1F [Example 349] . Value?
Result: 2.5

Request: Endpoint output: IC50 of `CCCOC(=O)N1CCC(n2ncc3c(N4CCOCC4)nc(-c4ccc(NC(=O)NC)cc4)nc32)CC1` . Value?
Result: 0.11

====

- Experimental system: PI3K (Homo sapiens, UniProt P42336)
- Sequence (P42336 whole entry): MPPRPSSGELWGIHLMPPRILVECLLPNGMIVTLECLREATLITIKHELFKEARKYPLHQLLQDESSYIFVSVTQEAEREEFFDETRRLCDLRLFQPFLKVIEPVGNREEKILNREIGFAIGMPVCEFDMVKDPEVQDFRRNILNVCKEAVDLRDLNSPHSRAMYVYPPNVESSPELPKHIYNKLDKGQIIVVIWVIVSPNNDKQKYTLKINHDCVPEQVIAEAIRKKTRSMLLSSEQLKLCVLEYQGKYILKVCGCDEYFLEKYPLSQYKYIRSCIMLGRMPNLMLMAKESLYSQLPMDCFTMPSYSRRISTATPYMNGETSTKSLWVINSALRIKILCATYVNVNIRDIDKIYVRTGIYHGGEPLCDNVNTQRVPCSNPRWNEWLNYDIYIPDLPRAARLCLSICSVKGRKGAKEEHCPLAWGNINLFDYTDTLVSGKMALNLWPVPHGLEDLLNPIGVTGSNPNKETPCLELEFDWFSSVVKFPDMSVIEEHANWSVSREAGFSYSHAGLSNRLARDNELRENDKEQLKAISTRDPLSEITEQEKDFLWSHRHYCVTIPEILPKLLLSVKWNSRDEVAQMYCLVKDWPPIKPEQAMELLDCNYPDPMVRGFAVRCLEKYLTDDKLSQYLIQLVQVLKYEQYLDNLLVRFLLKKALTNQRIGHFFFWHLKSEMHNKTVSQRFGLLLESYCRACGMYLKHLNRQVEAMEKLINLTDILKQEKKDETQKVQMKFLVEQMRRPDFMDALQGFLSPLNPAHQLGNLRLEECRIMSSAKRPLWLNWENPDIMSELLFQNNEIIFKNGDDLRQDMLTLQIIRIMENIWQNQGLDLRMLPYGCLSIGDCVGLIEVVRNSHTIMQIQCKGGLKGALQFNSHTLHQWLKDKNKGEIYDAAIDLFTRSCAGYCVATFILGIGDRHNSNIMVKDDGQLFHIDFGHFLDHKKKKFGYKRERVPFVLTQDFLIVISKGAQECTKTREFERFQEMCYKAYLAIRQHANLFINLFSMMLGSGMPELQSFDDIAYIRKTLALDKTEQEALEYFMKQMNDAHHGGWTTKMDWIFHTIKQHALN
- Sequence (P27986 whole entry partner): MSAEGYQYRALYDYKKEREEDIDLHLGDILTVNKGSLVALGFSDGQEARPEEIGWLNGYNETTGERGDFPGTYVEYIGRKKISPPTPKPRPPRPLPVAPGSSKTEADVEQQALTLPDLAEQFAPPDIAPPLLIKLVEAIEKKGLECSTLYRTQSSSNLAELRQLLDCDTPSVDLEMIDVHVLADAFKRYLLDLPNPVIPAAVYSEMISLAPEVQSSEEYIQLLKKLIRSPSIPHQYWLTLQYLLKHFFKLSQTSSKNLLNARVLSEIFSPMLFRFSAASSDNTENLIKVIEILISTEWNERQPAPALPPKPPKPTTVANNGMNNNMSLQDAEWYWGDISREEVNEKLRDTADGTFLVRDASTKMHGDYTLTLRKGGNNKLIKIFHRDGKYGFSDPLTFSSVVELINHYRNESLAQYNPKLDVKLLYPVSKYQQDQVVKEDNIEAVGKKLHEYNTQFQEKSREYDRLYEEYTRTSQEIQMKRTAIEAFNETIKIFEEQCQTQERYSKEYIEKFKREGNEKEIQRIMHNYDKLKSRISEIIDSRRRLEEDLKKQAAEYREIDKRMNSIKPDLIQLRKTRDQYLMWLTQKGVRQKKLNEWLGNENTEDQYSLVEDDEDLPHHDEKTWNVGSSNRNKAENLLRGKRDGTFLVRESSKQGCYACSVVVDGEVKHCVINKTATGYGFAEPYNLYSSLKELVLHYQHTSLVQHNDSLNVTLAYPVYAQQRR
- Procedure text: Fluorescence polarization assay for PI3K;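 further: PI3K kinase reaction on PIP2 with ATP, 30-60 min, product sensed by GST-GRP with red probe in fluorescence polarization (mP), controls without enzyme and at zero time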
- Type: biochemical
- Experimental conditions: PI3Kα; read-out: PI3Kα IC50
Measured parameter: IC50 (nM)

Solved entries:
CNC(=O)Nc1ccc(-c2nc(N3CCOCC3)c3cnn(C4CCOCC4)c3n2)cc1 [Compound 939] = 44
Nc1ncc(-c2nc(N3CCOCC3)c3cnn(C4CCN(Cc5cccnc5)CC4)c3n2)cn1 = 23
CNC(=O)Nc1cccc(-c2nc(N3CCOCC3)c3cnn(C4CCN(Cc5ccccc5)CC4)c3n2)c1 [Compound 482] = 1920

(a) Oc1cccc(-c2nc(N3CCOCC3)c3cnn(CCN4CCOCC4)c3n2)c1
(b) CNC(=O)Nc1ccc(-c2nc(N3CCOCC3)c3cnn(C4CCN(Cc5ccc(F)cc5)CC4)c3n2)cc1 [Compound 671]
Request: // compare measured IC50, left a , right b , return larger When you have decided, please share the label of that item.
Result: a

(a) CCCOC(=O)N1CCC(n2ncc3c(N4CCOCC4)nc(-c4ccc(NC(=O)NCCO)cc4)nc32)CC1
(b) O=C(Nc1ccc(-c2nc(N3CCOCC3)c3cnn(C4CCN(Cc5cccnc5)CC4)c3n2)cc1)NC1CC1 [Compound 649]
(c) CNC(=O)Nc1ccc(-c2nc(N3CCOCC3)c3cnn(C4CCN(Cc5ccccc5O)CC4)c3n2)cc1 [Compound 644]
Request: Highest IC50 first, then in falling order down to the smallest. Labels, ranked as asked.
Result: b, a, c

(P) CS(=O)(=O)Nc1cccc(-c2nc(N3CCOCC3)c3cnn(C4CCN(Cc5ccccc5)CC4)c3n2)c1
(Q) Nc1ccnc(-c2nc(N3CCOCC3)c3cnn(C4CCN(C(=O)c5cccnc5)CC4)c3n2)c1 [Compound 434]
(R) O=C(Nc1ccc(-c2nc(N3CCOCC3)c3cnn(C4CCN(C(=O)c5cccnc5)CC4)c3n2)cc1)NC1CC1 [Example 415]
(S) NNC(=O)Nc1ccc(-c2nc(N3CCOCC3)c3cnn(-c4ccccc4)c3n2)cc1 [Example 292]
Request: Highest IC50 first, then in falling order down to the smallest. Labels, ranked as asked.
Result: Q, P, R, S
